target: Peroxisome proliferator-activated receptor alpha (Mus musculus, UniProt P23204); test: Agonist activity at mouse PPARalpha receptor expressed in african green monkey COS1 cells co-transfected with fused yeast Gal4-DBD by transactivation assay; type: functional, cell-based, COS-1
pEC50 for assorted molecules
In plain terms, pEC50 is the concentration in mol/L turned into minus its base-10 logarithm.

Example molecules with recorded pEC50:
Cc1c(C(=O)c2ccc(Cl)cc2)c2ccc(OC(F)(F)F)cc2n1Cc1cccc(O[C@H](C)C(=O)O)c1 ... 7.55
CCC[C@@H](Oc1cccc(Cn2c(C)c(C(=O)c3ccc(Cl)cc3)c3ccc(OC(F)(F)F)cc32)c1)C(=O)O ... 6.96

The record that follows has no pEC50 shown yet.
Query: Sample `Cc1c(C(=O)c2ccc(Cl)cc2)c2ccc(OC(F)(F)F)cc2n1Cc1cccc(O[C@@H](C(=O)O)C(C)C)c1` — what was its pEC50?
Result: 7.40

---

test: Cmax in C57BLKS/J-m+/+Leprdb db/db mouse at 10 mg/kg, po once daily for 11 days; assay type: ADME, organism-based; set-up: dose 10 mg/kg, route oral; details: in vivo
Listing of recorded Cmax by entry.
Provide the reading as a plain figure in µM.

CN(CCOc1ccc(CC2SC(=O)NC2=O)cc1)c1ccccn1 (configuration not stated) ... 68

Here's the next entry for you.
Query: Which Cmax is listed for `CC[C@@H](Oc1cccc(Cn2c(C)c(C(=O)c3ccc(Cl)cc3)c3ccc(OC(F)(F)F)cc32)c1)C(=O)O` ?
Result: 9.6

---

experiment: AUC in Beagle dog at 50 mg/kg, po once daily for 14 days; type: ADME, organism-based, Canis lupus familiaris; design: dose 50 mg/kg, route oral; settings: plasma
outcome-measure: AUC at 336 h (µM·h)
The reply should be a number in µM·h, with the unit left off.

Query: # lookup: AUC at 336 h of CC(C)OC(=O)C(C)(C)Oc1ccc(C(=O)c2ccc(Cl)cc2)cc1 [FENOFIBRATE]
Result: 117

---

assay: AUC in Syrian golden hamster at 1 mg/kg, po once daily for 9 days; assay type: ADME, organism-based, Mesocricetus auratus; design: dose 1 mg/kg, route oral; conditions: plasma
outcome-measure: AUC at 216 h (µM·h)
Field format: number, assumed µM·h, no unit text.

Query: Which AUC at 216 h is listed for `CC[C@@H](Oc1cccc(Cn2c(C)c(C(=O)c3ccc(Cl)cc3)c3ccc(OC(F)(F)F)cc32)c1)C(=O)O` ?
Result: 0.55

---

assay: Agonist activity at hamster PPARalpha receptor; type: functional, Cricetinae
outcome-measure: pEC50
Scale explanation: pEC50 corresponds to minus log10 of a concentration expressed in moles per litre.

Query: Sample `CC[C@@H](Oc1cccc(Cn2c(C)c(C(=O)c3ccc(Cl)cc3)c3ccc(OC(F)(F)F)cc32)c1)C(=O)O` — what was its pEC50?
Result: 9.34

---

assay: AUC in Beagle dog at 1 mg/kg, po once daily for 14 days; assay type: ADME, organism-based, Canis lupus familiaris; design: dose 1 mg/kg, route oral; conditions: plasma
outcome-measure: AUC at 336 h

Query: I would be grateful if you could share the reported AUC at 336 h for `CC[C@@H](Oc1cccc(Cn2c(C)c(C(=O)c3ccc(Cl)cc3)c3ccc(OC(F)(F)F)cc32)c1)C(=O)O` .
Result: 5.41 µM·h

---

Target: Peroxisome proliferator-activated receptor alpha (Mus musculus, UniProt P23204)
Sequence (P23204 whole entry): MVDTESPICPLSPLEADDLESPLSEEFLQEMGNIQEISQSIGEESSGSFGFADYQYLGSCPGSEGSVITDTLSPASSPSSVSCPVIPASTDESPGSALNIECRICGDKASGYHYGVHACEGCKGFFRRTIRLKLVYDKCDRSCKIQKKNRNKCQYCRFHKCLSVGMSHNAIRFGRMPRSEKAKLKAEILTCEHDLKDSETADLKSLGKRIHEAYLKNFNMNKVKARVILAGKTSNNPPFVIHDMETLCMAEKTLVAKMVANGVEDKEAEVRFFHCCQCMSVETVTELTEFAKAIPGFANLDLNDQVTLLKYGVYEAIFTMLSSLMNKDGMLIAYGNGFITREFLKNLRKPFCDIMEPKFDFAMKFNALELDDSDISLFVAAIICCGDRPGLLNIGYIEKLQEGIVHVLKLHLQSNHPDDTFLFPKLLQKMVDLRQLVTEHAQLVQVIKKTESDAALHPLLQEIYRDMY
Test: Agonist activity at mouse PPARalpha receptor expressed in african green monkey COS1 cells co-transfected with fused yeast Gal4-DBD by transactivation assay
Assay type: functional, cell-based, COS-1
pEC50: −log10 of the molar value.
outcome-measure: pEC50

CC[C@@](C)(Oc1cccc(Cn2c(C)c(C(=O)c3ccc(Cl)cc3)c3ccc(OC(F)(F)F)cc32)c1)C(=O)O (stereo in doubt; 12j) ... < 6.00
CC[C@H](Oc1cccc(Cn2c(C)c(C(=O)c3ccc(Cl)cc3)c3ccc(OC(F)(F)F)cc32)c1)C(=O)O ... < 5.52

# evaluate next
Query: Record `CCC[C@H](Oc1cccc(Cn2c(C)c(C(=O)c3ccc(Cl)cc3)c3ccc(OC(F)(F)F)cc32)c1)C(=O)O` : what is its pEC50 with Peroxisome proliferator-activated receptor alpha (Mus musculus, UniProt P23204)?
Result: < 5.52

---

molecular target: Peroxisome proliferator-activated receptor gamma (Homo sapiens, UniProt P37231)
Sequence (P37231 whole entry): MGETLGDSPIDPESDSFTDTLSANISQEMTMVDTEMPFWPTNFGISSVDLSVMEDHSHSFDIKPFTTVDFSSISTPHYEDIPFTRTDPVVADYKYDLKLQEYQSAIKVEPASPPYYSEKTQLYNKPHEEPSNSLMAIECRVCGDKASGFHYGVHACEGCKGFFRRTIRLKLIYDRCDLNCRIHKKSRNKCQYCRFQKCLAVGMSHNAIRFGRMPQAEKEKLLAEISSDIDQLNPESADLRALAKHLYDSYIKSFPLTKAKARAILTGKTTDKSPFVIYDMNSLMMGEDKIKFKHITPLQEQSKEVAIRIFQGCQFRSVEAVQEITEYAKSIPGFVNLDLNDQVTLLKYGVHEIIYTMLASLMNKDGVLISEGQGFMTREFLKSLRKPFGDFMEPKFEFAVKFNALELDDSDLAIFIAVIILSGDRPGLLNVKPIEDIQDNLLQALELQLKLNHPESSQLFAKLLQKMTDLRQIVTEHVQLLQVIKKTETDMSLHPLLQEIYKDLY
Recorded pIC50 for the following compounds
Recall that pIC50 is obtained by taking minus log10 of the concentration measured in molar.

Take a look at these entries with their results.
Cc1c(C(=O)c2ccc(Cl)cc2)c2ccc(OC(F)(F)F)cc2n1Cc1cccc(OC2(C(=O)O)CCC2)c1 ... 7.80
Cc1c(C(=O)c2ccc(Cl)cc2)c2ccc(OC(F)(F)F)cc2n1Cc1cccc(O[C@H](C(=O)O)C(C)C)c1 ... 7.77
CC[C@@](C)(Oc1cccc(Cn2c(C)c(C(=O)c3ccc(Cl)cc3)c3ccc(OC(F)(F)F)cc32)c1)C(=O)O (stereo in doubt; 12j) ... 8.30
Cc1c(Cc2cccc(OCC(=O)O)c2)c2cc(OC(F)(F)F)ccc2n1C(=O)c1ccc(Cl)cc1 ... 9.00
Cc1c(C(=O)c2ccc(Cl)cc2)c2ccc(OC(F)(F)F)cc2n1Cc1cccc(O[C@H](C)C(=O)O)c1 ... 7.96

Query: Param readout = pIC50; param system = Peroxisome proliferator-activated receptor gamma (Homo sapiens, UniProt P37231); param query = `Cc1c(C(=O)c2ccc(Cl)cc2)c2ccc(OC(F)(F)F)cc2n1Cc1cccc(OCC(=O)O)c1` ; response: value
Result: 8.70

Query: // fetch Peroxisome proliferator-activated receptor gamma (Homo sapiens, UniProt P37231) pIC50 for `CC[C@H](Oc1cccc(Cn2c(C)c(C(=O)c3ccc(Cl)cc3)c3ccc(OC(F)(F)F)cc32)c1)C(=O)O`
Result: 8.40

Query: For Peroxisome proliferator-activated receptor gamma (Homo sapiens, UniProt P37231), provide pIC50 of `Cc1c(C(=O)c2ccc(Cl)cc2)c2ccc(OC(F)(F)F)cc2n1Cc1cccc(O[C@@H](C(=O)O)C(C)C)c1` please.
Result: 8.00

Query: # returns recorded pIC50 (system: Peroxisome proliferator-activated receptor gamma (Homo sapiens, UniProt P37231)) for CC[C@@](C)(Oc1cccc(Cn2c(C)c(C(=O)c3ccc(Cl)cc3)c3ccc(OC(F)(F)F)cc32)c1)C(=O)O (stereo in doubt; 12i)
Result: 8.05

Query: Give the reported pIC50 for `CCC[C@@H](Oc1cccc(Cn2c(C)c(C(=O)c3ccc(Cl)cc3)c3ccc(OC(F)(F)F)cc32)c1)C(=O)O` (system: Peroxisome proliferator-activated receptor gamma (Homo sapiens, UniProt P37231)).
Result: 7.92

---

Overview of recorded pEC50 for various molecules
Target: Peroxisome proliferator-activated receptor alpha (Mus musculus)
Sequence (P23204 whole entry): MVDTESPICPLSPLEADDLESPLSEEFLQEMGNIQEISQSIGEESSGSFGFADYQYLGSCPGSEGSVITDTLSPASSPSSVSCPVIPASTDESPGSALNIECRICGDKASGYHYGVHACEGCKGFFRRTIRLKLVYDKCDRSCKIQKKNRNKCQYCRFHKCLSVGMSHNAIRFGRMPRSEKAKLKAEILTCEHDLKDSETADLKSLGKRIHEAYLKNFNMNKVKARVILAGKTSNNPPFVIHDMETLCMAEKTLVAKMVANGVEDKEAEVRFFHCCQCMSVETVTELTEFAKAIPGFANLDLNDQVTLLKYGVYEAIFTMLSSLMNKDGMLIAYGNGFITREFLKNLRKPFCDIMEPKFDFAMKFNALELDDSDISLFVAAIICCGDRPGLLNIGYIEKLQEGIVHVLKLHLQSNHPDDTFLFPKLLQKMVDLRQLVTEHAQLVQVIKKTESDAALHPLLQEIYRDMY
Experiment: Agonist activity at mouse PPARalpha receptor expressed in african green monkey COS1 cells co-transfected with fused yeast Gal4-DBD by transactivation assay
Assay type: functional, cell-based, COS-1
pEC50: −log10 of the molar value.

Known pEC50 results, listed for orientation:
CN(CCOc1ccc(CC2SC(=O)NC2=O)cc1)c1ccccn1 (stereo not drawn) ... < 5.52
Cc1c(Cc2cccc(OCC(=O)O)c2)c2cc(OC(F)(F)F)ccc2n1C(=O)c1ccc(Cl)cc1 ... < 5.52

Query: Param readout= pEC50; system= Peroxisome proliferator-activated receptor alpha (Mus musculus); entry= `Cc1c(C(=O)c2ccc(Cl)cc2)c2ccc(OC(F)(F)F)cc2n1Cc1cccc(O[C@@H](C)C(=O)O)c1` ; returns value.
Result: < 5.52
